# assayed_system: Tyrosine-protein kinase Fer (Homo sapiens, UniProt P16591); further: in the data inactive means no Kd found up to 30 µM
# Sequence (P16591 whole entry): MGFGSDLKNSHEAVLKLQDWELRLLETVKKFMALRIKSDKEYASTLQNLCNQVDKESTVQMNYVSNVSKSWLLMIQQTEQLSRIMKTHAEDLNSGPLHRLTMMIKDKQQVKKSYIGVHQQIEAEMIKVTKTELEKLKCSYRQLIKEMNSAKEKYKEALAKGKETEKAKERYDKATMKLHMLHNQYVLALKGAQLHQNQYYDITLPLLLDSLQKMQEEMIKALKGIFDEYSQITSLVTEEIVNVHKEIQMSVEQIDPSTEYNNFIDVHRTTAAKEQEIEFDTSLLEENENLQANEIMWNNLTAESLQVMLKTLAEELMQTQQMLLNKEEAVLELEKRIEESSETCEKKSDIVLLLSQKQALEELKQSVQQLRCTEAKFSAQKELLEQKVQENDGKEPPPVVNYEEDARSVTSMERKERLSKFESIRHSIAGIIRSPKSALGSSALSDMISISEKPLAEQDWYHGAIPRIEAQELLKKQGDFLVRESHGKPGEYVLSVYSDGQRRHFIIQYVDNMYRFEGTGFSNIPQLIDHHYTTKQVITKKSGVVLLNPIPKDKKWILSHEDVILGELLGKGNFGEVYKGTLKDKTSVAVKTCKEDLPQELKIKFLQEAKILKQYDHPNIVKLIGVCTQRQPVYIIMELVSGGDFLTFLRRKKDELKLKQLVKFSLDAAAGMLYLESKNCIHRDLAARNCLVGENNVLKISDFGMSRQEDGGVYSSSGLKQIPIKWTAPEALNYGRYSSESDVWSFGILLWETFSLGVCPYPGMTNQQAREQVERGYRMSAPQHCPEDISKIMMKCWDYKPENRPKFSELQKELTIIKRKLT
Activity calls are given as the source filed them.
Possible outcomes: active, inactive

INSERT INTO results (compound, assayed_system, class_name) VALUES
  ('CNC(=O)c1nn(C)c2c1C(C)(C)Cc1cnc(Nc3ccc(N4CCN(C)CC4)cc3)nc1-2 [MILCICLIB]', 'Tyrosine-protein kinase Fer (Homo sapiens, UniProt P16591)', 'inactive'),
  ('Cc1cc(Nc2ncnc3ccc(NC4=NC(C)(C)CO4)cc23)ccc1Oc1ccn2ncnc2c1 [TUCATINIB]', 'Tyrosine-protein kinase Fer (Homo sapiens, UniProt P16591)', 'inactive'),
  ('COc1cc2ncnc(Oc3cccc(NC(=O)Nc4cc(C(C)(C)C(F)(F)F)on4)c3)c2cc1OC [CEP-32496]', 'Tyrosine-protein kinase Fer (Homo sapiens, UniProt P16591)', 'active'),
  ('COc1ncc(-c2ccc3nccc(-c4ccnnc4)c3c2)cc1NS(=O)(=O)c1ccc(F)cc1F [OMIPALISIB]', 'Tyrosine-protein kinase Fer (Homo sapiens, UniProt P16591)', 'inactive'),
  ('O=C(Nc1cc(C(F)(F)F)cc(C(F)(F)F)c1)c1cc(Cl)ccc1O [IMD-0354]', 'Tyrosine-protein kinase Fer (Homo sapiens, UniProt P16591)', 'inactive'),
  ('COc1cc([C@@H]2c3cc4c(cc3[C@H](O)[C@H]3COC(=O)[C@@H]23)OCO4)cc(OC)c1OC [AXL-1717]', 'Tyrosine-protein kinase Fer (Homo sapiens, UniProt P16591)', 'inactive'),
  ('O=C(Nc1nc2cccc(-c3ccc(CN4CCS(=O)(=O)CC4)cc3)n2n1)C1CC1 [FILGOTINIB]', 'Tyrosine-protein kinase Fer (Homo sapiens, UniProt P16591)', 'inactive'),
  ('CCS(=O)(=O)c1cccc(-c2cc(C(=O)NC3CCN(C)CC3)c(C)c3[nH]c4ncc(C)cc4c23)c1 [TAK-901]', 'Tyrosine-protein kinase Fer (Homo sapiens, UniProt P16591)', 'active'),
  ('C[C@@H](N)c1ccc(C(=O)Nc2ccnc3[nH]ccc23)cc1 [Y-39983]', 'Tyrosine-protein kinase Fer (Homo sapiens, UniProt P16591)', 'inactive'),
  ('COc1cc2c(Nc3ccc(Cl)c(Cl)c3F)ncnc2cc1OC[C@@H]1C[C@@H]2CN(C)C[C@@H]2C1 [TESEVATINIB]', 'Tyrosine-protein kinase Fer (Homo sapiens, UniProt P16591)', 'inactive'),
  ('O=C1NC(=O)[C@@H](c2cn3c4c(cccc24)CCC3)[C@@H]1c1c[nH]c2ccccc12 [TIVANTINIB]', 'Tyrosine-protein kinase Fer (Homo sapiens, UniProt P16591)', 'inactive'),
  ('FC(F)(F)c1ccc(/C=C/c2nc(COc3ccc(CCCCn4ccnn4)cc3)co2)cc1 [MUBRITINIB]', 'Tyrosine-protein kinase Fer (Homo sapiens, UniProt P16591)', 'inactive'),
  ('COc1c(OCCCN2CCOCC2)ccc2c1N=C(NC(=O)c1cnc(N)nc1)N1CCN=C21 [COPANLISIB]', 'Tyrosine-protein kinase Fer (Homo sapiens, UniProt P16591)', 'inactive'),
  ('Cc1nc2cc(-n3ncc(C(=O)c4cc5ccccc5[nH]4)c3N)ccc2[nH]1 [FGFR INHIBITOR DEBIO 1347]', 'Tyrosine-protein kinase Fer (Homo sapiens, UniProt P16591)', 'inactive');
